The measurements presented in this section are drawn from patent USRE49099.

# testTarget: T1, human activated protein C (human, UniProt P04070 43-197; P04070 212-461)
# T1 construct: also called human aPC; human APC
# procedureText: SPR (Biacore), 1:1 binding model
Recorded kon by entry
Number only, in M⁻¹ s⁻¹; omit the unit.

Consider the following illustrative entries.
INSERT INTO measurements (binder, quantitymeasured, numericvalue) VALUES
  ('Hu1573-4 (antibody, V domains shown, Humanized IgG, human gamma 1 / kappa constant regions by vectors pCP-hCg1 and pCP-hck; also called H1573VH.1B + H1573Vk.2A) VH: EVQLVESGGGLVQPGGSLRLSCAASGFTFSNYYLNWVRQAPGKGLEWVGDIRLKSNNYEKHYAESVKGRFTISRDDSKNSVYLQMNSLKTEDTAVYYCIREGDYFDYWGQGTTVTVSS VL: DIVLTQTPLSLSVTPGQPASISCRASESVDSFGATFMHWYLQKPGQPPQLLIYLASNLESGVPDRFSGSGSGTDFTLKISRVEAEDVGVYYCQQNNEDPYTFGQGTKLEIKR', 'kon', '1.52e+06'),
  ('Hu1573-15 (antibody, V domains shown, Humanized IgG, human gamma 1 / kappa constant regions by vectors pCP-hCg1 and pCP-hck; also called H1573VH.1F + H1573Vk.2) VH: EVQLVESGGGLVQPGGSLRLSCAASGFTFSNYYLNWVRQAPGKGLEWVADIRLKSNNYEKHYAESVKGRFTISRDDSKSSVYLQMNSLKTEDTAVYYCIREGDYFDYWGQGTTVTVSS VL: DIVMTQTPLSLSVTPGQPASISCRASESVDSFGATFMHWYLQKPGQPPQLLIYLASNLESGVPDRFSGSGSGTDFTLKISRVEAEDVGVYYCQQNNEDPYTFGQGTKLEIKR', 'kon', '1.37e+06'),
  ('Hu1573-6 (antibody, V domains shown, Humanized IgG, human gamma 1 / kappa constant regions by vectors pCP-hCg1 and pCP-hck; also called H1573VH.1C + H1573Vk.2) VH: EVQLVESGGGLVQPGGSLRLSCAASGFTFSNYYLNWVRQAPGKGLEWVADIRLKSNNYEKHYAESVKGRFTISRDDSKNSLYLQMNSLKTEDTAVYYCIREGDYFDYWGQGTTVTVSS VL: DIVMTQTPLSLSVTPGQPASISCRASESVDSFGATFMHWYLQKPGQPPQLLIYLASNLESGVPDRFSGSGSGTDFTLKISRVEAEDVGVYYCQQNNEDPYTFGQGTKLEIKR', 'kon', '1.43e+06'),
  ('Hu1573-3 (antibody, V domains shown, Humanized IgG, human gamma 1 / kappa constant regions by vectors pCP-hCg1 and pCP-hck; also called H1573VH.1B + H1573Vk.2) VH: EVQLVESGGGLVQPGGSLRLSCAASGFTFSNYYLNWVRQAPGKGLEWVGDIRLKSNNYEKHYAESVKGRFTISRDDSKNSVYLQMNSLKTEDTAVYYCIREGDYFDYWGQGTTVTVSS VL: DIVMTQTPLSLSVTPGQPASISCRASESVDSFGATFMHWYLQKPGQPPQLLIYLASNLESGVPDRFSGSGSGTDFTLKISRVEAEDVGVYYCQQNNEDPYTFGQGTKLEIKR', 'kon', '1.44e+06');

# next binder below
[in] Input Hu1573-10 (antibody, V domains shown, Humanized IgG, human gamma 1 / kappa constant regions by vectors pCP-hCg1 and pCP-hck; also called H1573VH.1D + H1573Vk.2A) VH: EVQLVESGGGLVQPGGSLRLSCAASGFTFSNYYLNWVRQAPGKGLEWVGDIRLKSNNYEKHYAESVKGRFTISRDDSKSSLYLQMNSLKTEDTAVYYCIREGDYFDYWGQGTTVTVSS VL: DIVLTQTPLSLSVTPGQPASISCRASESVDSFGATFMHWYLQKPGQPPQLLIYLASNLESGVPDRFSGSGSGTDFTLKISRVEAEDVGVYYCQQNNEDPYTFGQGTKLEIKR , output reported kon.
[out] 1.45e+06
